Just for reference, ChEMBL document CHEMBL1144903 is where these values come from.

# UniProt P51681: Ki values follow
# Sequence (P51681 whole entry): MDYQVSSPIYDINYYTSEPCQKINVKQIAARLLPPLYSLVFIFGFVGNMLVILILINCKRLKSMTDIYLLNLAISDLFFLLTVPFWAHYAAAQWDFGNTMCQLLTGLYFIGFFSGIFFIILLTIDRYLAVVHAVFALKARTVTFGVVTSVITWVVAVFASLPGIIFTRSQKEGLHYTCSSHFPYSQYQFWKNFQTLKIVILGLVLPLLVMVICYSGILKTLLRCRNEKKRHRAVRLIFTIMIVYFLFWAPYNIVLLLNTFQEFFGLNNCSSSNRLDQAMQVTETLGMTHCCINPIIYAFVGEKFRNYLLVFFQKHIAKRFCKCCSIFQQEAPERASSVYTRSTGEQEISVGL
Express it in nM; write the number only.

Req: Request body: readout Ki, system UniProt P51681, query CO/N=C(/c1ccc(Br)cc1)C1CCN(C2(C)CCN(C(=O)c3c(N)cccc3Cl)CC2)CC1 . Return the value.
Resp: 3.4

Req: Now consider CCO/N=C(/c1ccc(Br)cc1)C1CCN(C2(C)CCN(C(=O)c3c(C)ccc[n+]3[O-])CC2)CC1 and answer again.
Resp: 16

Req: What do you get for COc1ccc(CC2CCN(C3(C)CCN(C(=O)c4c(C)cccc4C)CC3)CC2)cc1 ?
Resp: 155

Req: Moving on to the next molecule: CCO/N=C(/c1ccc(Cl)cc1)C1CCN(C2(C)CCN(C(=O)c3c(C)cc[n+]([O-])c3C)CC2)CC1
Resp: 5.6

Req: Moving on to Cc1cccc(C)c1C(=O)N1CCC(C)(N2CCC(Cc3ccc(C(F)(F)F)cc3)CC2)CC1
Resp: 25

Req: Same for CCO/N=C(/c1ccc(Br)cc1)C1CCN(C2(C)CCN(C(=O)c3c(C)cccc3C)CC2)CC1
Resp: 2

Req: Next entry: Cc1cccc(C)c1C(=O)N1CCC(C)(N2CCC(C(C)c3ccc(Br)cc3)CC2)CC1 (stereo not given)
Resp: 62

Req: Queued: Cc1cccc(O)c1C(=O)N1CCC(C)(N2CCN([C@@H](C)c3ccc(I)cc3)[C@@H](C)C2)CC1
Resp: 7

Req: Proceed to C[C@H]1CN(C2CCN(C(=O)c3c(F)cccc3I)CC2)CCN1[C@@H](C)c1ccc(I)cc1
Resp: 1300

Req: Lookup C=C(c1ccc(Br)cc1)C1CCN(C2(C)CCN(C(=O)c3c(C)cccc3C)CC2)CC1
Resp: 8

Req: Record: CO/N=C(/c1ccc(S(C)(=O)=O)cc1)C1CCN(C2(C)CCN(C(=O)c3c(C)cc[n+]([O-])c3C)CC2)CC1
Resp: 30

Req: Follow-up entry: CCOC(=O)CO/N=C(/c1ccc(Br)cc1)C1CCN(C2(C)CCN(C(=O)c3c(C)cccc3C)CC2)CC1
Resp: 33

Req: Then what about the molecule CCO/N=C(/c1ccc(F)cc1)C1CCN(C2(C)CCN(C(=O)c3c(C)cc[n+]([O-])c3C)CC2)CC1 ?
Resp: 30

Req: Cc1ccc(CC2CCN(C3(C)CCN(C(=O)c4c(C)cccc4C)CC3)CC2)cc1 ?
Resp: 110

Req: Please do the same for CCO/N=C(/c1ccc(Br)cc1)C1CCN(C2(C)CCN(C(=O)c3c(C)ncnc3C)CC2)CC1 as well.
Resp: 2.2

Req: Record: Cc1cccc(C)c1C(=O)N1CCC(C)(N2CCC(Cc3ccc(OC(F)(F)F)cc3)CC2)CC1
Resp: 55

Req: Follow-up item: CCO/N=C(/c1ccc(Br)cc1)C1CCN(C2(C)CCN(C(=O)c3c(C)cc(O)nc3C)CC2)CC1
Resp: 7

Req: // repeat for Cc1cccc(C)c1C(=O)N1CCC(C)(N2CCC(Cc3ccc(S(C)(=O)=O)cc3)CC2)CC1 and report
Resp: 33
